# System: PPARg:RXRa DBDmut IVT, anti-RXR (DBD mutation: RXRa K156A/R161A, NR concentration 270 nM, RXRa partner concentration 90 nM)
# test protocol: PBM binding z-score (relative to random genomic background probes); higher = stronger binding; sequences stand for … in GC…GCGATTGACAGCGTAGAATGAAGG
Tick Y if PBM binding z-score is 1 or greater. Tick N if PBM binding z-score is less than 1.

Worked cases, answers included:
CCGACTGGGGCAGAAAGGTTACGATACCATCCGG ... Y
CCTAGCAGGCCAATCTGCGTCACTCAAGGCTTGA ... Y
CATACAGGGTCAGCTAGGCCAGACTAGGGACGGC ... Y
TCTTGTAGATTAAAGGTTAAGAAAGCCGAAGCCT ... Y
CCTAGTTGGTCAGGAGGTCAAACACCGGATATGA ... Y
TCATATATGTAATACAGGTGAAAGTCGGCATCTA ... Y
ACTTTTAGTTGAGACGAGGGCAACCGATAGGTTG ... N
ATATGTAGGTTCTCGGGTCATTCAGTTTGCGCAT ... Y

Exam item: decide whether the reported PBM binding z-score for "CCTACGGGGCCATCAGGTCATTGATATCAACGTT" is at least 1.
Y

Next record, please: "GCTAGTTGGTCCGTAAAAGGTCACACACCGGTCG"
N

Next record, please: "CGTCAAAGTTAAACTAAGGTAACGTAAAGCACGC"
N

Next record, please: "CGTCAAAGTGCAACTAAGGTAACGTAAAGCACGC"
N

Next record, please: "CGTATTAGTTGACCATAAGGGCAACCGAAGCTCG"
N

Next record, please: "CCGACTGGAGCAAGGTTACCATAACGCACAGCCA"
Y

Next record, please: "TCTTGTAGATCAAAGGTTATGAAAGCCGAAGCCT"
Y

Next record, please: "TCTAGCAGGCCAGAGGGTCACACAAGAGGTACGG"
Y

Next record, please: "ATCTCTAGGTAAAGCTAGTTCAGTGAATGCAAAT"
Y

Next record, please: "TCTATTAGTTGCAGGGCAACCGACGAGTCCGTTT"
Y

Next record, please: "TAGCCTAGGTCATTGGGTCAGTATAGTACGCATC"
Y

====

# System: PPARg:RXRa DBDmut IVT, anti-RXR (DBD mutation: RXRa K156A/R161A, NR concentration 270 nM, RXRa partner concentration 90 nM)
# test protocol: PBM binding z-score (relative to random genomic background probes); higher = stronger binding; sequences stand for … in GC…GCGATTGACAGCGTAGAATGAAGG
Assign classes using reported PBM binding z-score values and the ranges A = under 1, B = from 1 up to 3, C = 3 and over, please.

Worked cases, answers included:
TCTAGCATGCCAGAGGGTCACTCAAGAGGTACGG ... A
ATCTATAGGTAAAGTTCAGTGAAAGATCGATAGA ... B
TCTCGGAGGACACGAAGGCCAGAGCTTTCCAGAG ... B
TAGCCTAGGTCATTCACGGGCCAGTATAGAAAGC ... B
CCTACTGGGGCAAGGTTACCATAACGCACAGCCA ... C
TCTAGGAGGACACGAAAGGTCAGAGCTCGACATC ... B
TCATATAGGTAAATACTAGGTGAAAGTCCGATCT ... C
TCATATAGGTAATACGGGTGAAAGTCGGCATCTA ... C
CCTGCTAGATCATGGTCAGCTAATCTACAGTATG ... A
CCTACTGGGCCATTCAGAGGTCATTCATCATATG ... C

Sort "CCGACTGGGGCACAAGGTTACCATAAGCCAGCCC" into one of the categories.
C

Next record, please: "ATCTCTAGGTAAGACTCAGTTGAGTGAAGAACGC"
B

Next record, please: "CCAGACAGGTGAGAAGGTATCTCAGCCTCGATTA"
A
